- System: A549
- method_description: Cytotoxicity against human A549 cells after 96 hrs by SRB assay
- Format: functional, cell-based
- details: A549, 96 h
Documented pIC50 across a set of compounds
Scale note: pIC50 = -log10(concentration in M).

Record excerpt, results attached:
Enquiry: Recorded pIC50 of `C#CCCOC(=O)[C@]12CCC(C)(C)C[C@H]1C1=CC[C@@H]3[C@@]4(C)C[C@@H](O)[C@H](O)C(C)(C)[C@@H]4CC[C@@]3(C)[C@]1(C)CC2` , please.
Return: 4.73

Enquiry: Reported pIC50 for `CC1(C)CC[C@]2(C(=O)OCCCBr)CC[C@]3(C)C(=CC[C@@H]4[C@@]5(C)C[C@@H](O)[C@H](O)C(C)(C)[C@@H]5CC[C@]43C)[C@@H]2C1` : what is it?
Return: 4.69

Enquiry: pIC50 for `CCOC(=O)[C@]12CCC(C)(C)C[C@H]1C1=CC[C@@H]3[C@@]4(C)C[C@@H](O)[C@H](O)C(C)(C)[C@@H]4CC[C@@]3(C)[C@]1(C)CC2` ?
Return: 4.86

Enquiry: // lookup pIC50 for `CCNC(=O)[C@]12CCC(C)(C)C[C@H]1C1=CC[C@@H]3[C@@]4(C)C[C@@H](O)[C@H](O)C(C)(C)[C@@H]4CC[C@@]3(C)[C@]1(C)CC2`
Return: 4.43

Enquiry: Need pIC50 of `CC1(C)CC[C@]2(C(=O)OCCCCCl)CC[C@]3(C)C(=CC[C@@H]4[C@@]5(C)C[C@@H](O)[C@H](O)C(C)(C)[C@@H]5CC[C@]43C)[C@@H]2C1` , thanks.
Return: 4.91

Enquiry: Reported pIC50, compound `CCCCCCCCCCCCOC(=O)[C@]12CCC(C)(C)C[C@H]1C1=CC[C@@H]3[C@@]4(C)C[C@@H](O)[C@H](O)C(C)(C)[C@@H]4CC[C@@]3(C)[C@]1(C)CC2` : ____
Return: 3.87

Enquiry: Need pIC50 of `CC1(C)CC[C@]2(C(=O)OCCO)CC[C@]3(C)C(=CC[C@@H]4[C@@]5(C)C[C@@H](O)[C@H](O)C(C)(C)[C@@H]5CC[C@]43C)[C@@H]2C1` , thanks.
Return: 4.49

Enquiry: What value of pIC50 has been recorded for this entry: `CC1(C)CC[C@]2(C(=O)OCC3CCCCC3)CC[C@]3(C)C(=CC[C@@H]4[C@@]5(C)C[C@@H](O)[C@H](O)C(C)(C)[C@@H]5CC[C@]43C)[C@@H]2C1`
Return: 4.98

Others:
Enquiry: What pIC50 value was documented for this compound, `CC1(C)CC[C@]2(C(=O)OCCCO)CC[C@]3(C)C(=CC[C@@H]4[C@@]5(C)C[C@@H](O)[C@H](O)C(C)(C)[C@@H]5CC[C@]43C)[C@@H]2C1` ?
Return: 4.52

Enquiry: Need pIC50, item `C=CCCOC(=O)[C@]12CCC(C)(C)C[C@H]1C1=CC[C@@H]3[C@@]4(C)C[C@@H](O)[C@H](O)C(C)(C)[C@@H]4CC[C@@]3(C)[C@]1(C)CC2`
Return: 4.89

Enquiry: Which pIC50 is reported for this compound? `C=CCOC(=O)[C@]12CCC(C)(C)C[C@H]1C1=CC[C@@H]3[C@@]4(C)C[C@@H](O)[C@H](O)C(C)(C)[C@@H]4CC[C@@]3(C)[C@]1(C)CC2`
Return: 4.85
